Assay: Unbound fraction in Sprague-Dawley rat brain at 0.2 to 0.25 mg/kg, iv via cassette dosing measured up to 24 hrs post dose by LC/MS/MS analysis
Type: ADME, organism-based
experimental-readout: fraction unbound at 24 h

# smiles-text, fraction unbound at 24 h
rows = [
    ("COc1cc(F)c(CCCNc2cc(OC(F)(F)F)ccc2-n2cncn2)cc1OC", "< 0.003"),
]

# input What value of measured fraction unbound at 24 h is listed for `COc1ccc(CCCNc2cc(OC(F)(F)F)ccc2-n2cncn2)cc1OC` ?
# output < 0.003

# input What value of measured fraction unbound at 24 h is listed for `COc1cc(F)c(OCCNc2cc(OC(F)(F)F)ccc2-n2cncn2)cc1OC` ?
# output < 0.003

# input What value of measured fraction unbound at 24 h is listed for `COc1cc(C(=O)Nc2cc(OC(F)(F)F)ccc2-n2cncn2)ccc1OCC1CC1` ?
# output 0.009

# input What value of measured fraction unbound at 24 h is listed for `COc1ccc(CNc2cc(OC(F)(F)F)ccc2-n2cncn2)cc1OC` ?
# output < 0.003

###

Target: Metabotropic glutamate receptor 8 (Homo sapiens, UniProt O00222)
Sequence (O00222 whole entry): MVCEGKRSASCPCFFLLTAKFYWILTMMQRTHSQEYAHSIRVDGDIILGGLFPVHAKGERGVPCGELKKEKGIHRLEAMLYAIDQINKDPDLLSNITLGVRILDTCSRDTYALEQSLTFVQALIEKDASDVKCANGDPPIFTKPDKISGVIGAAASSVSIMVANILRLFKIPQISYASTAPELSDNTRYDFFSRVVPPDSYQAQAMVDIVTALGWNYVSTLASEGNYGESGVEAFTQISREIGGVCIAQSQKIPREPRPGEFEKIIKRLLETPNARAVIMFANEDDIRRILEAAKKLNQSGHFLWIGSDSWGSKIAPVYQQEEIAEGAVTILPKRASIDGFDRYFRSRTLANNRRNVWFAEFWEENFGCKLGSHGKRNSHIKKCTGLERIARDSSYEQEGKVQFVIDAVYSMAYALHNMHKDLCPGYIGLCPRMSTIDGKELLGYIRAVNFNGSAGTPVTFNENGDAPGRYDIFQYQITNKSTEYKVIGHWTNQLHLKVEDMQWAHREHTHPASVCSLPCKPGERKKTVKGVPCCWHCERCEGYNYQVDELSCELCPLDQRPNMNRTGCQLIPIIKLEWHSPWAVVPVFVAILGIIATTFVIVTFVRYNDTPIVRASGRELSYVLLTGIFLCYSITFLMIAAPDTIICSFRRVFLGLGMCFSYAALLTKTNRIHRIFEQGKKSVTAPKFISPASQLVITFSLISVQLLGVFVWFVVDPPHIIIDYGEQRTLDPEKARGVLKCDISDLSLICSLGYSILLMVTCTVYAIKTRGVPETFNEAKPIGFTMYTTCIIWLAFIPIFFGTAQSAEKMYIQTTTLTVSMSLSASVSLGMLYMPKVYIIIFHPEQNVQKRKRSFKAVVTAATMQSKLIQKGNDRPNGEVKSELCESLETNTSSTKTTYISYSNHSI
Experiment: Negative allosteric modulation of mGlu8 receptor (unknown origin)
experimental-readout: IC50

# input What value of measured IC50 is listed for `COc1cc(C(=O)Nc2cc(OC(F)(F)F)ccc2-n2cncn2)ccc1OCC1CC1` ?
# output > 10 µM

###

Target: UniProt Q14832
Sequence (Q14832 whole entry): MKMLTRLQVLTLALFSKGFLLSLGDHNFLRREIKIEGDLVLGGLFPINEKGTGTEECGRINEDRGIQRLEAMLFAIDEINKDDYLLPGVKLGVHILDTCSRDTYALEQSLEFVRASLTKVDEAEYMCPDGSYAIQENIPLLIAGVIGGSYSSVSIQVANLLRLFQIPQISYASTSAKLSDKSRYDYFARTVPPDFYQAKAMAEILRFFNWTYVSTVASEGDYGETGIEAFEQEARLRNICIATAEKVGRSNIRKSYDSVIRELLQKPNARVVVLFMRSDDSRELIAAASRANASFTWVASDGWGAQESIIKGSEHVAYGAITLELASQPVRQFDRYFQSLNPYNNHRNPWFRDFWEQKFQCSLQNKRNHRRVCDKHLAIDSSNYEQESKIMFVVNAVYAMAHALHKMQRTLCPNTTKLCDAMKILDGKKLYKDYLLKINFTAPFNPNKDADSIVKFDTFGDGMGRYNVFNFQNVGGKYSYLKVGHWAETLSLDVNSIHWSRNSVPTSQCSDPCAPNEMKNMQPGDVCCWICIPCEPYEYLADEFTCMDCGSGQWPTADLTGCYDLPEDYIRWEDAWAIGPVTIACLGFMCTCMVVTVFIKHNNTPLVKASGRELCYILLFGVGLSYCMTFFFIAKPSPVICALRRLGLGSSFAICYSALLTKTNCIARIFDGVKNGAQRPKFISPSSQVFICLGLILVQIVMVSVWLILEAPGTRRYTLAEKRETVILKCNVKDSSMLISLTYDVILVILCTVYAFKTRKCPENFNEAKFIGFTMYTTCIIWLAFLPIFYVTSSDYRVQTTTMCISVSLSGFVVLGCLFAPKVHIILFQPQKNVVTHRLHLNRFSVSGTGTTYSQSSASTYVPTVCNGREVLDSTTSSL
Assay: Negative allosteric modulation of mGlu3 receptor (unknown origin)
pIC50: −log10 of the molar value.
experimental-readout: pIC50

# input What value of measured pIC50 is listed for `COc1cc(C(=O)Nc2cc(OC(F)(F)F)ccc2-n2cncn2)ccc1OCC1CC1` ?
# output < 5.00

###

Target: Metabotropic glutamate receptor 4 (Homo sapiens)
Sequence (Q14833 whole entry): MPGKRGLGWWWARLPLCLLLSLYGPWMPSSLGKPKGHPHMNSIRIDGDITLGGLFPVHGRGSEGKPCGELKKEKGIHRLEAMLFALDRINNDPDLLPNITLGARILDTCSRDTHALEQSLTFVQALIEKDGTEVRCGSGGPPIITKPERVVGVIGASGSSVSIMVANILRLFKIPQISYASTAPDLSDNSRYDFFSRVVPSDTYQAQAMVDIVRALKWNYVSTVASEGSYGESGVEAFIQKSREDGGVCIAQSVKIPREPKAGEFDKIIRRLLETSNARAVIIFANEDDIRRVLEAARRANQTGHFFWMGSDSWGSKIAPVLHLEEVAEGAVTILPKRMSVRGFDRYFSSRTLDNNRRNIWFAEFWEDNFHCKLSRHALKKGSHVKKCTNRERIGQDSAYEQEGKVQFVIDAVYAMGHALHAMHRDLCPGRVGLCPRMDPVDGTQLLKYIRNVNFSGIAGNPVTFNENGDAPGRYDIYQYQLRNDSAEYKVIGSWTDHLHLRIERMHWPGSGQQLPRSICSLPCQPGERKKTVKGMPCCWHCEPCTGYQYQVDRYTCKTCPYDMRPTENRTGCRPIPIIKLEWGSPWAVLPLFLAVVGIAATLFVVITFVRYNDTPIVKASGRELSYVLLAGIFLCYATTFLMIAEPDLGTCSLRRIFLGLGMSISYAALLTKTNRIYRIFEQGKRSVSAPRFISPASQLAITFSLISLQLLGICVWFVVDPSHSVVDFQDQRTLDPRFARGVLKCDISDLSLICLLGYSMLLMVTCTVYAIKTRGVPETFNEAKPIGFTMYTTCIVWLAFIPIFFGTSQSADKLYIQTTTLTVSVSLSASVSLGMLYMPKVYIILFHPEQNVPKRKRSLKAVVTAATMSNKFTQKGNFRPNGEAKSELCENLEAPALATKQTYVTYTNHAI
Experiment: Negative allosteric modulation of mGlu4 receptor (unknown origin)
experimental-readout: IC50

# input What value of measured IC50 is listed for `COc1cc(C(=O)Nc2cc(OC(F)(F)F)ccc2-n2cncn2)ccc1OCC1CC1` ?
# output > 10 µM

###

Target: Metabotropic glutamate receptor 7 (Rattus norvegicus)
Sequence (P35400 whole entry): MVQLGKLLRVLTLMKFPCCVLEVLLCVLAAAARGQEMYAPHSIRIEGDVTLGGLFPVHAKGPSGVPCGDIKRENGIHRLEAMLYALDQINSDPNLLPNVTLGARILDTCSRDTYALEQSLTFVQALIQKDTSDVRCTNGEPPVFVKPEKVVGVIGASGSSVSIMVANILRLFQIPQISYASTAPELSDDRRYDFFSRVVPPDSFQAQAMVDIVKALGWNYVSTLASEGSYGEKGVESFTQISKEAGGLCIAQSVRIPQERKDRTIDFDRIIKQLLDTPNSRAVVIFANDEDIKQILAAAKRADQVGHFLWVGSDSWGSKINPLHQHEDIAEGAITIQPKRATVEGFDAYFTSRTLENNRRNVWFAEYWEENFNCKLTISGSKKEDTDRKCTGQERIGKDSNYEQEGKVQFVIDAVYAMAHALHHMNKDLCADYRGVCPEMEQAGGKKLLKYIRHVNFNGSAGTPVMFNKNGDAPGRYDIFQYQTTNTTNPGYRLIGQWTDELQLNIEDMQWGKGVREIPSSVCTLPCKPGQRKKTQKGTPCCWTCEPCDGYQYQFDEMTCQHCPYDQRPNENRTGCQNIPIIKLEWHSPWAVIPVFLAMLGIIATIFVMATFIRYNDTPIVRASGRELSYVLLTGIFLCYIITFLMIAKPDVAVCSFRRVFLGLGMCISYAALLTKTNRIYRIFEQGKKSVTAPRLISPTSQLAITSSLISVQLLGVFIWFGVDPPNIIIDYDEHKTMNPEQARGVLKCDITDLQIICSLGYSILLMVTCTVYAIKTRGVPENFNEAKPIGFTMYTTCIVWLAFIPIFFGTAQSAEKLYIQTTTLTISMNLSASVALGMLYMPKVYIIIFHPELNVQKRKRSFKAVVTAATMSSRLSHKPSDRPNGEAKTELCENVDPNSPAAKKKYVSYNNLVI
Test: Negative allosteric modulation of rat mGlu7 receptor expressed in HEK cells harboring Ga15 assessed as reduction in L-AP4-induced calcium flux preincubated for 142 secs followed by agonist addition and measured after 120 secs by Fluo-4-AM-dye based fluorescence assay
pIC50: −log10 of the molar value.
experimental-readout: pIC50

# smiles-text, pIC50
data = [
    ("COc1ccc(CCCNc2cc(Cl)ccc2-n2cncn2)cc1OC", "< 5.00"),
    ("COc1cc(C(=O)Nc2cc(OC(F)(F)F)ccc2-n2cncn2)ccc1OCC(F)(F)F", "< 4.52"),
    ("COc1cc(F)c(CCCNc2cc(Cl)ccc2-n2cncn2)cc1OC", "< 5.00"),
]

Kindly consider the entry below.
# input What value of measured pIC50 is listed for `COc1cc(F)c(OCCNc2cc(Cl)ccc2-n2cncn2)cc1OC` ?
# output < 5.00

Data provenance is ChEMBL document CHEMBL4422629.
